The reported measurements were obtained from the FLAb antibody collection (doi:10.7554/elife.23156).

Reported values of yeast surface expression for individual entries
B1: scFv; the commonest letter at each place (parent)
chain 1: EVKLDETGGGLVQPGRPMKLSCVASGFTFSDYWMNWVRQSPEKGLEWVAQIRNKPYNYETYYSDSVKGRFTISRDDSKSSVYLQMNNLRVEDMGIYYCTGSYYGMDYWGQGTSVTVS
chain 2: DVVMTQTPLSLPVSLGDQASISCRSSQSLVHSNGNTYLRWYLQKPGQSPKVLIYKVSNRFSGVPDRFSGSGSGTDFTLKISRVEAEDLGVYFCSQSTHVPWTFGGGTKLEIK

- Variants of: B1
- Test: yeast surface expression (ratio to wild type); higher = more expressed
- Test settings: format: scFv 4-4-20, heavy + light

// solved cases for yeast surface expression follow
## Task // returns reported yeast surface expression for input chain 1 M34C V37I
## Result 0.76

## Task Now consider chain 1 Y32H N35T .
## Result 0.813

## Task Now consider chain 1 G100S D106C .
## Result 1.03

## Task Now consider chain 1 N35P W36V .
## Result 1.08

## Task Now consider chain 1 M105F D106C .
## Result 1.03

## Task Now consider chain 1 G100V S101M .
## Result 0.712

Continuing:
## Task // returns reported yeast surface expression for input chain 1 M105S
## Result 0.889

## Task Now consider chain 1 T28I Y32C .
## Result 0.946

## Task Now consider chain 1 G104Y .
## Result 0.464

## Task Now consider chain 1 Y32Q W36V .
## Result 0.479

## Task Now consider chain 1 T28K W33D .
## Result 0.981

## Task Now consider chain 1 Y102Q M105V .
## Result 1.05

## Task Now consider chain 1 F29P Y32P .
## Result 0.856

## Task Now consider chain 1 G104C Y107F .
## Result 0.291

## Task Now consider chain 1 S30H .
## Result 0.839

## Task Now consider chain 1 D106N W108I .
## Result 0.556

## Task Now consider chain 1 Y102L D106R .
## Result 0.344

## Task Now consider chain 1 Y103V D106H .
## Result 0.384

## Task Now consider chain 1 T28W Y32W .
## Result 0.65

## Task Now consider chain 1 M105Q G109H .
## Result 0.299
